Would you mind telling me the reported cell viability/% of each entry?
tested on: P388 mouse leukemia cells; conditions: 92 h
Where a SMILES comes first, the peptide text is derived from it. [ ]: non-standard residue; d: D form. The star is where a group is joined. NHCH2CH2OH = OCCN*; For = O=C*
# include the unit after the value

Asked: State, in one line, measured cell viability/% of CC(C)C[C@@H](NC(=O)[C@H](C)NC(=O)CNC(=O)[C@@H](NC=O)C(C)C)C(=O)N[C@@H](C)C(=O)N[C@@H](C(=O)N[C@H](C(=O)N[C@@H](C(=O)N[C@@H](Cc1c[nH]c2ccccc12)C(=O)N[C@H](CC(C)C)C(=O)N[C@@H](Cc1c[nH]c2ccccc12)C(=O)N[C@H](CC(C)C)C(=O)N[C@@H](Cc1c[nH]c2ccccc12)C(=O)N[C@@H](C(=O)N[C@@H](Cc1c[nH]c2ccccc12)C(=O)NCCO)C(C)C)[C@H](C)O)C(C)C)C(C)C [compound 13268] (For-VGA[dL]A[dV]V[dT]W[dL]W[dL]W[dV]W-NHCH2CH2OH)
Given back: 100.0%

Asked: Note down cell viability/% recorded for CC(C)C[C@@H](NC(=O)[C@H](C)NC(=O)CNC(=O)[C@@H](NC=O)C(C)C)C(=O)N[C@@H](C)C(=O)N[C@@H](C(=O)N[C@H](C(=O)N[C@@H](C(=O)N[C@@H](Cc1c[nH]c2ccccc12)C(=O)N[C@@H](C(=O)N[C@@H](Cc1c[nH]c2ccccc12)C(=O)N[C@H](CC(C)C)C(=O)N[C@@H](Cc1c[nH]c2ccccc12)C(=O)N[C@@H](C(=O)N[C@@H](Cc1c[nH]c2ccccc12)C(=O)NCCO)C(C)C)C(C)C)[C@H](C)O)C(C)C)C(C)C [compound 5167] (For-VGA[dL]A[dV]V[dT]W[dV]W[dL]W[dV]W-NHCH2CH2OH)
Given back: 100.0%

Asked: Supply measured cell viability/% of CC(C)C[C@@H](NC(=O)[C@H](Cc1c[nH]c2ccccc12)NC(=O)[C@@H](CC(C)C)NC(=O)[C@@H](NC(=O)[C@H](NC(=O)[C@H](C)NC(=O)[C@H](NC(=O)[C@H](C)NC(=O)CNC(=O)[C@@H](NC=O)C(C)C)[C@H](C)O)C(C)C)C(C)C)C(=O)N[C@@H](Cc1c[nH]c2ccccc12)C(=O)N[C@H](CC(C)C)C(=O)N[C@@H](Cc1c[nH]c2ccccc12)C(=O)N[C@@H](C(=O)N[C@@H](Cc1c[nH]c2ccccc12)C(=O)NCCO)C(C)C [compound 4236] (For-VGA[dT]A[dV]V[dL]W[dL]W[dL]W[dV]W-NHCH2CH2OH) in your reply.
Given back: 93.0%

Asked: Respond only with cell viability/% recorded for CC(C)C[C@@H](NC(=O)[C@H](C)NC(=O)CNC(=O)[C@@H](NC=O)C(C)C)C(=O)N[C@@H](C)C(=O)N[C@H](CC(C)C)C(=O)N[C@H](C(=O)N[C@@H](C(=O)N[C@@H](Cc1c[nH]c2ccccc12)C(=O)N[C@@H](C(=O)N[C@@H](Cc1c[nH]c2ccccc12)C(=O)N[C@H](CC(C)C)C(=O)N[C@@H](Cc1c[nH]c2ccccc12)C(=O)N[C@H](CC(C)C)C(=O)N[C@@H](Cc1c[nH]c2ccccc12)C(=O)NCCO)C(C)C)C(C)C)C(C)C [compound 8858] (For-VGA[dL]A[dL]V[dV]W[dV]W[dL]W[dL]W-NHCH2CH2OH)
Given back: 84.7%

Asked: Please give the documented cell viability/% of CC(C)C[C@@H](NC(=O)[C@H](C)NC(=O)[C@H](NC(=O)[C@H](C)NC(=O)CNC(=O)[C@@H](NC=O)C(C)C)[C@H](C)O)C(=O)N[C@H](C(=O)N[C@H](CC(C)C)C(=O)N[C@@H](Cc1c[nH]c2ccccc12)C(=O)N[C@@H](C(=O)N[C@@H](Cc1c[nH]c2ccccc12)C(=O)N[C@H](CC(C)C)C(=O)N[C@@H](Cc1c[nH]c2ccccc12)C(=O)N[C@@H](C(=O)N[C@@H](Cc1c[nH]c2ccccc12)C(=O)NCCO)C(C)C)[C@H](C)O)C(C)C [compound 4545] (For-VGA[dT]A[dL]V[dL]W[dT]W[dL]W[dV]W-NHCH2CH2OH)
Given back: 100.0%

Asked: Supply measured cell viability/% of CC(C)C[C@@H](NC(=O)[C@H](C)NC(=O)[C@H](NC(=O)[C@H](C)NC(=O)CNC(=O)[C@@H](NC=O)C(C)C)C(C)C)C(=O)N[C@H](C(=O)N[C@@H](C(=O)N[C@@H](Cc1c[nH]c2ccccc12)C(=O)N[C@@H](C(=O)N[C@@H](Cc1c[nH]c2ccccc12)C(=O)N[C@H](CC(C)C)C(=O)N[C@@H](Cc1c[nH]c2ccccc12)C(=O)N[C@H](CC(C)C)C(=O)N[C@@H](Cc1c[nH]c2ccccc12)C(=O)NCCO)C(C)C)C(C)C)C(C)C [compound 12099] (For-VGA[dV]A[dL]V[dV]W[dV]W[dL]W[dL]W-NHCH2CH2OH) in your reply.
Given back: 85.4%

Asked: Report measured cell viability/%; entry is CC(C)C[C@@H](NC(=O)[C@H](C)NC(=O)[C@H](NC(=O)[C@H](C)NC(=O)CNC(=O)[C@@H](NC=O)C(C)C)[C@H](C)O)C(=O)N[C@H](C(=O)N[C@H](CC(C)C)C(=O)N[C@@H](Cc1c[nH]c2ccccc12)C(=O)N[C@@H](C(=O)N[C@@H](Cc1c[nH]c2ccccc12)C(=O)N[C@H](CC(C)C)C(=O)N[C@@H](Cc1c[nH]c2ccccc12)C(=O)N[C@@H](C(=O)N[C@@H](Cc1c[nH]c2ccccc12)C(=O)NCCO)C(C)C)[C@H](C)O)C(C)C [compound 367] (For-VGA[dT]A[dL]V[dL]W[dT]W[dL]W[dV]W-NHCH2CH2OH)
Given back: 100.0%

Asked: Answer with the recorded cell viability/% of CNC(=O)C[C@@H](NC(=O)[C@H](Cc1c[nH]c2ccccc12)NC(=O)[C@@H](CC(C)C)NC(=O)[C@H](Cc1c[nH]c2ccccc12)NC(=O)[C@@H](CC(C)C)NC(=O)[C@H](Cc1c[nH]c2ccccc12)NC(=O)[C@H](NC(=O)[C@@H](NC(=O)[C@@H](CC(C)C)NC(=O)[C@H](C)NC(=O)[C@@H](CC(C)C)NC(=O)[C@H](C)NC(=O)CNC(=O)[C@@H](NC=O)C(C)C)C(C)C)C(C)C)C(=O)N[C@@H](Cc1c[nH]c2ccccc12)C(=O)NCCO [compound 6829] (For-VGA[dL]A[dL]V[dV]W[dL]W[dL]W[dD](NHMe)W-NHCH2CH2OH) only.
Given back: 100.0%
